Counter-ions that a name gives are not always drawn.
Here the recorded melting point is given for each entry.

CCSc1cncc(C2CCCCCN2)c1 (racemic) (as salt: fumaric acid salt)
159 to 161 °C

QUERY: Look up melting point for this compound: c1ccc2ncc(C3CCCCCCN3)cc2c1 (racemic) (as salt: fumaric acid salt)
RESULT: 172 to 174 °C

QUERY: Look up melting point for this compound: CCSc1cncc(C2CCCCCCN2C)c1 (racemic) (as salt: fumaric acid salt)
RESULT: 143.5 to 145.5 °C

QUERY: Look up melting point for this compound: c1cncc(C2CCCCCCN2)c1 (racemic) (as salt: fumaric acid salt)
RESULT: 141 to 142 °C

----------
system_name: nicotinic ACh receptors comprised of α4 and β2 subunits (3H-cytisine binding site) (Rattus norvegicus, UniProt P09483+P12390)
Sequence (P09483 31-630): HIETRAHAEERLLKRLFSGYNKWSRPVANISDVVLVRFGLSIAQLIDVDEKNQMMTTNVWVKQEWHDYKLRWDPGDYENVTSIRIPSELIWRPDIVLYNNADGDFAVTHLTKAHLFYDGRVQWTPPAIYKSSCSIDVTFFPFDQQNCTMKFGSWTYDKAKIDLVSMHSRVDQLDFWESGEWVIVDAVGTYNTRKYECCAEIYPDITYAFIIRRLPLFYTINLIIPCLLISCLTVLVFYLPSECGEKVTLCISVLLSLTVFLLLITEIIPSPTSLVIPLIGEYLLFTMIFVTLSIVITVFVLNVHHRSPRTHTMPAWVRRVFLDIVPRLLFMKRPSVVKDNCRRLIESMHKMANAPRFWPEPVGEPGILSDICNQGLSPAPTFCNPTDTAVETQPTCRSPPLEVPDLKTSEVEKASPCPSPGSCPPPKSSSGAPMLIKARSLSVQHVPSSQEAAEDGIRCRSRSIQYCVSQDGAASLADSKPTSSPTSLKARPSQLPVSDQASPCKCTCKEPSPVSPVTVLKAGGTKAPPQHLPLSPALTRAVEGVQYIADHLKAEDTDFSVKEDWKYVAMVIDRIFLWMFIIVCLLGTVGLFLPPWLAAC
Sequence (P12390 25-500): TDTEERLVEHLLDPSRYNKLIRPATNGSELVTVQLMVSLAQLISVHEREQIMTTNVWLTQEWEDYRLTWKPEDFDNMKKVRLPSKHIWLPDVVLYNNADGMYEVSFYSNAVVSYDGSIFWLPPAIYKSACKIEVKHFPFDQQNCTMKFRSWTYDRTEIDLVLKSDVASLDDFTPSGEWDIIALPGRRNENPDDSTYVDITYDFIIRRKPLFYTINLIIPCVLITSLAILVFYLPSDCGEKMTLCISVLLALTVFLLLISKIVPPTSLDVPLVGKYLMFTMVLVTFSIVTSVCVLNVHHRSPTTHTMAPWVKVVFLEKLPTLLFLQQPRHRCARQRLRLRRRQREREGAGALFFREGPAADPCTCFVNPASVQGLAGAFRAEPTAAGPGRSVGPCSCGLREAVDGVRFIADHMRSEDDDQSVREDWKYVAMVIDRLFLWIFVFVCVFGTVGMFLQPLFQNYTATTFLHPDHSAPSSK
experimental_protocol: In vitro inhibition of 3H-cytisine binding
details: rat cerebral cortex homogenate, 1 nM 3H-cytisine, 90 min at 2° C.; read-out: 3H-cytisine IC50
measurement_label: IC50

QUERY: Look up IC50 for this compound: CCSc1cncc(C2CCCCCCN2C)c1 (racemic) [Compound 5b]
RESULT: 1.95 µM

QUERY: Look up IC50 for this compound: CCSc1cncc(C2CCCCCN2)c1 (racemic) [Compound 5a]
RESULT: 4.3 µM

QUERY: Look up IC50 for this compound: CCSc1cncc(C2CCCCCCN2)c1 (racemic) [Compound 6a]
RESULT: 1 µM

QUERY: Look up IC50 for this compound: c1ccc2ncc(C3CCCCCCN3)cc2c1 (racemic) [Compound 3a]
RESULT: 1.3 µM

----------
system_name: nicotinic ACh receptors comprised of α4 and β2 subunits (3H-cytisine binding site) (Rattus norvegicus, UniProt P09483+P12390)
experimental_protocol: In vitro inhibition of 3H-cytisine binding
measurement_label: IC50 (nM)
Field: numeric (nM). Do not append units.

Please review the entries below; each comes with its answer.
CN1CCCCCCC1c1cccnc1 (racemic)
560
c1cncc(C2CCCCCCN2)c1 (racemic)
200

QUERY: Look up IC50 for this compound: c1cncc(C2=NCCCCCC2)c1
RESULT: 59

----------
Here the recorded IC50 is given for each entry.
system_name: nAChR formed by the α7 subunit (3H-α-bungarotoxin binding site) (Rattus norvegicus)
Sequence (Q05941 23-502): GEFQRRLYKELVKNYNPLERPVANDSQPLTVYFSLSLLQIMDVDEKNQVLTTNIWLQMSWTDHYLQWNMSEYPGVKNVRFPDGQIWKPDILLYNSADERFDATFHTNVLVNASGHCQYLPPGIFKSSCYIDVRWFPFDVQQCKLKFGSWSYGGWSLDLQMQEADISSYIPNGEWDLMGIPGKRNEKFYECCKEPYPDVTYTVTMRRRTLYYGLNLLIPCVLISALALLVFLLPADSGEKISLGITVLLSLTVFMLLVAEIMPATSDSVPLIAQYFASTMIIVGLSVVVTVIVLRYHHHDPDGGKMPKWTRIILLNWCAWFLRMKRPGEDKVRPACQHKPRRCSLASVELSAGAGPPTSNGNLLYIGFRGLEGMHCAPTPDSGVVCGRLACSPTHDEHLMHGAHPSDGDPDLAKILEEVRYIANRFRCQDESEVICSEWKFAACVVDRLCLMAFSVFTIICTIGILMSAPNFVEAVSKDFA
experimental_protocol: biochemical

QUERY: Look up IC50 for this compound: c1ccc2ncc(C3CCCCCCN3)cc2c1 (racemic) [Compound 3a]
RESULT: > 30 µM

QUERY: Look up IC50 for this compound: CCSc1cncc(C2CCCCCN2)c1 (racemic) [Compound 5a]
RESULT: > 30 µM
